Measured values drawn from patent US20150139990A1 for this set.

Target: T1, human CD81 on CD81-expressing cells (Jurkat E6.1, human PBMC, Ramos) (human, UniProt P60033 1-236)
T1 sequence: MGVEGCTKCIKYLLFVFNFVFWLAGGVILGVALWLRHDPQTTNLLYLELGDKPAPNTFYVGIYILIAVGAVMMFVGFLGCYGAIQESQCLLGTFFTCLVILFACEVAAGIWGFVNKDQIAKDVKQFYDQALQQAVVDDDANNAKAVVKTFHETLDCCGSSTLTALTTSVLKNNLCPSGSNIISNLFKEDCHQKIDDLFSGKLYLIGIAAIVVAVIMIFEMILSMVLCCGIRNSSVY
Experiment: cell-based or functional assay
MEASURED_QUANTITY: Jurkat chemotaxis (% of control IgG4) at 0.01 µg/mL (%)
Hi! Could you send only the number? It should be in %, unit omitted.

Lookup: # input binder: 002-H02 (antibody, human IgG4 S228P, lambda, V domains shown, IgG4 S228P) VH: EVQLLESGGGLVQPGGSLRLSCAASGFTFSSNYMSWVRQAPGKGLEWVSYISSSSTYTDYADSVKGRFTISRDNSKNTLYLQMNSLRAEDTAVYYCARYSYGRDSFDYWGQGTLVTVSS VL: QSVLTQPSSASGTPGQRVTISCTGSTSNIGAGYGTHWYQQLPGTAPKLLIYGNSNRPSGVPDRFSGSKSGTSASLAISGLRSEDEADYYCQSYDTNLSVWVFGGGTKLTVLG ; wanted: its Jurkat chemotaxis (% of control IgG4) at 0.01 µg/mL
Found: 85
